test system: CV-1; assay: Cytotoxicity score in the HSV/CV-1 antiviral assay; details: 100 ng/mL, scale 0 (least toxic) to 16 (toxic)
Starred links: 1 amine or outer side, 2 acyl side, 3 side chain; linkers in the order of their positions; H or OH if unused. Positions of bridges follow the written chain, without caps; N, C: chain ends. Non-standard residues stand in square brackets, D forms with d. Residues, ends and D or L forms follow the SMILES beside them. X1 = CC[C@H](C)[C@@H](N[*:1])[C@@H](O)CC(=O)O[C@H](C(=O)[C@H](C)C(=O)[*:2])C(C)C; NMeY = CN[C@@H](Cc1ccc(O)cc1)C(=O)O; dNMeL = CN[C@H](CC(C)C)C(=O)O; pGlu = O=C1CC[C@@H](C(=O)O)N1; Lac = C[C@H](O)C(=O)O
Each entry below carries its recorded Cytotoxocity.

MOLECULE	Cytotoxocity
CC[C@H](C)[C@H]1NC(=O)[C@@H](NC(=O)[C@@H](CC(C)C)NC)[C@@H](C)OC(=O)[C@H](Cc2ccc(OC)cc2)N(C)C(=O)[C@@H]2CCCN2C(=O)[C@H](CC(C)C)NC(=O)[C@@H](C)C(=O)[C@H](C(C)C)OC(=O)C[C@@H]1O [Didemnin A (1), Didemnin A] (H-[dNMeL]T[X1]LP[NMeY](Me); ester 2-C)	0
CC[C@H](C)[C@H]1NC(=O)[C@@H](NC(=O)[C@@H](CC(C)C)N(C)C(=O)[C@@H]2CCCN2C(=O)[C@H](C)OC(=O)[C@@H](N)CCC(N)=O)[C@@H](C)OC(=O)[C@H](Cc2ccc(OC)cc2)N(C)C(=O)[C@@H]2CCCN2C(=O)[C@H](CC(C)C)NC(=O)[C@@H](C)C(=O)[C@H](C(C)C)OC(=O)C[C@@H]1OC(=O)[C@@H](N)CCC(N)=O [Gln[GlnIst^2]-Didemnin B (160), Glutaminyl-glutaminyl-didemnin B]	0
CC[C@H](C)[C@H]1NC(=O)[C@@H](NC(=O)[C@@H](CC(C)C)N(C)C(=O)[C@@H]2CCCN2C(=O)[C@H](C)OC(=O)[C@@H]2CCC(=O)N2)[C@@H](C)OC(=O)[C@H](Cc2ccc(OC)cc2)N(C)C(=O)[C@@H]2CCCN2C(=O)[C@H](CC(C)C)NC(=O)[C@@H](C)C(=O)[C@H](C(C)C)OC(=O)C[C@@H]1O [pGlu-Didemnin B (39), L-Pyroglutaminyl-didemnin B] ([pGlu][Lac]P[dNMeL]T[X1]LP[NMeY](Me); ester 5-C)	16
CC[C@H](C)[C@H]1NC(=O)[C@@H](NC(=O)[C@@H](CC(C)C)N(C)C(=O)[C@@H]2CCCN2C(=O)C(C)O)[C@@H](C)OC(=O)[C@H](Cc2ccc(OC)cc2)N(C)C(=O)[C@@H]2CCCN2C(=O)[C@H](CC(C)C)NC(=O)[C@@H](C)C(=O)[C@H](C(C)C)OC(=O)C[C@@H]1O (some centres unmarked) [Didemnin (B) (2), Didemnin B, reference compound]	16
CC[C@H](C)[C@H]1NC(=O)[C@@H](NC(=O)[C@@H](CC(C)C)N(C)C(=O)[C@@H]2CCCN2C(=O)[C@H](C)OC(=O)[C@@H](N)CCC(N)=O)[C@@H](C)OC(=O)[C@H](Cc2ccc(OC)cc2)N(C)C(=O)[C@@H]2CCCN2C(=O)[C@H](CC(C)C)NC(=O)[C@@H](C)C(=O)[C@H](C(C)C)OC(=O)C[C@@H]1O [Gln-Didemnin B, Glutaminyl-didemnin B] (H-Q[Lac]P[dNMeL]T[X1]LP[NMeY](Me); ester 5-C)	16

---

tested on: HSV; assay: Antiviral activities of didemnins, HSV/CV-1; assay type: cell-based; parameters: key: +++ = complete inhibition; ++ = strong inhibition; + = moderate inhibition; − = no inhibition; details: 10 ng/mL
Starred links: 1 amine or outer side, 2 acyl side, 3 side chain; linkers in the order of their positions; H or OH if unused. Positions of bridges follow the written chain, without caps; N, C: chain ends. Non-standard residues stand in square brackets, D forms with d. Residues, ends and D or L forms follow the SMILES beside them. X1 = CC[C@H](C)[C@@H](N[*:1])[C@@H](O)CC(=O)O[C@H](C(=O)[C@H](C)C(=O)[*:2])C(C)C; NMeY = CN[C@@H](Cc1ccc(O)cc1)C(=O)O; dNMeL = CN[C@H](CC(C)C)C(=O)O; pGlu = O=C1CC[C@@H](C(=O)O)N1; Lac = C[C@H](O)C(=O)O
VALUE TYPE: Activity

MOLECULE	EXPERIMENTAL RESULT
CC[C@H](C)[C@H]1NC(=O)[C@@H](NC(=O)[C@@H](CC(C)C)N(C)C(=O)[C@@H]2CCCN2C(=O)[C@H](C)OC(=O)[C@@H]2CCC(=O)N2C(=O)OCc2ccccc2)[C@@H](C)OC(=O)[C@H](Cc2ccc(OC)cc2)N(C)C(=O)[C@@H]2CCCN2C(=O)[C@H](CC(C)C)NC(=O)[C@@H](C)C(=O)[C@H](C(C)C)OC(=O)C[C@@H]1O [Cbz-pGlu-Didemnin B (145)]	−
CC[C@H](C)[C@H]1NC(=O)[C@@H](NC(=O)[C@@H](CC(C)C)N(C)C(=O)[C@@H]2CCCN2C(=O)[C@H](C)OC(=O)[C@@H](N)CCC(N)=O)[C@@H](C)OC(=O)[C@H](Cc2ccc(OC)cc2)N(C)C(=O)[C@@H]2CCCN2C(=O)[C@H](CC(C)C)NC(=O)[C@@H](C)C(=O)[C@H](C(C)C)OC(=O)C[C@@H]1OC(=O)[C@@H](N)CCC(N)=O [Gln[GlnIst^2]-Didemnin B (160), Glutaminyl-glutaminyl-didemnin B]	+
CC[C@H](C)[C@H]1NC(=O)[C@@H](NC(=O)[C@@H](CC(C)C)N(C)C(=O)[C@@H]2CCCN2C(=O)[C@H](C)OC(=O)[C@@H]2CCC(=O)N2)[C@@H](C)OC(=O)[C@H](Cc2ccc(OC)cc2)N(C)C(=O)[C@@H]2CCCN2C(=O)[C@H](CC(C)C)NC(=O)[C@@H](C)C(=O)[C@H](C(C)C)OC(=O)C[C@@H]1O [pGlu-Didemnin B (39), L-Pyroglutaminyl-didemnin B] ([pGlu][Lac]P[dNMeL]T[X1]LP[NMeY](Me); ester 5-C)	+

---

Attribute: Inhibition (%)
test: Cytotoxicity of didemnins (Table II); format: cell-based; conditions: Dose 0.25 ng/mL
Starred links: 1 amine or outer side, 2 acyl side, 3 side chain; linkers in the order of their positions; H or OH if unused. Positions of bridges follow the written chain, without caps; N, C: chain ends. Non-standard residues stand in square brackets, D forms with d. Residues, ends and D or L forms follow the SMILES beside them. *: point of attachment. X1 = CC[C@H](C)[C@@H](N[*:1])[C@@H](O)CC(=O)O[C@H](C(=O)[C@H](C)C(=O)[*:2])C(C)C; NMeY = CN[C@@H](Cc1ccc(O)cc1)C(=O)O; dNMeL = CN[C@H](CC(C)C)C(=O)O; pGlu = O=C1CC[C@@H](C(=O)O)N1; Cbz = O=C(OCc1ccccc1)*; Lac = C[C@H](O)C(=O)O

COMPOUND	Inhibition (%)
CC[C@H](C)[C@H]1NC(=O)[C@@H](NC(=O)[C@@H](CC(C)C)N(C)C(=O)[C@@H]2CCCN2C(=O)[C@H](C)OC(=O)[C@H](CCC(N)=O)NC(=O)OCc2ccccc2)[C@@H](C)OC(=O)[C@H](Cc2ccc(OC)cc2)N(C)C(=O)[C@@H]2CCCN2C(=O)[C@H](CC(C)C)NC(=O)[C@@H](C)C(=O)[C@H](C(C)C)OC(=O)C[C@@H]1O [Cbz-Gln-Didemnin B (161)] (Cbz-Q[Lac]P[dNMeL]T[X1]LP[NMeY](Me); ester 5-C)	0
CC[C@H](C)[C@H]1NC(=O)[C@@H](NC(=O)[C@@H](CC(C)C)N(C)C(=O)[C@@H]2CCCN2C(=O)[C@H](C)OC(=O)[C@H](CCC(N)=O)NC(=O)OCc2ccccc2)[C@@H](C)OC(=O)[C@H](Cc2ccc(OC)cc2)N(C)C(=O)[C@@H]2CCCN2C(=O)[C@H](CC(C)C)NC(=O)[C@@H](C)C(=O)[C@H](C(C)C)OC(=O)C[C@@H]1OC(=O)[C@H](CCC(N)=O)NC(=O)OCc1ccccc1 [Cbz-Gln[Cbz-GlnIst^2]DB (162)]	0
CC[C@H](C)[C@H]1NC(=O)[C@@H](NC(=O)[C@@H](CC(C)C)N(C)C(=O)[C@@H]2CCCN2)[C@@H](C)OC(=O)[C@H](Cc2ccc(OC)cc2)N(C)C(=O)[C@@H]2CCCN2C(=O)[C@H](CC(C)C)NC(=O)[C@@H](C)C(=O)[C@H](C(C)C)OC(=O)C[C@@H]1O [Prolyl-didemnin A (43), prolyl-didemnin A] (H-P[dNMeL]T[X1]LP[NMeY](Me); ester 3-C)	30
CC[C@H](C)[C@H]1NC(=O)[C@@H](NC(=O)[C@@H](CC(C)C)N(C)C(=O)[C@@H]2CCCN2C(=O)[C@H](C)OC(=O)[C@@H]2CCC(=O)N2)[C@@H](C)OC(=O)[C@H](Cc2ccc(OC)cc2)N(C)C(=O)[C@@H]2CCCN2C(=O)[C@H](CC(C)C)NC(=O)[C@@H](C)C(=O)[C@H](C(C)C)OC(=O)C[C@@H]1O [pGlu-Didemnin B (39), L-Pyroglutaminyl-didemnin B] ([pGlu][Lac]P[dNMeL]T[X1]LP[NMeY](Me); ester 5-C)	94
CC[C@H](C)[C@H]1NC(=O)[C@@H](NC(=O)[C@@H](CC(C)C)NC)[C@@H](C)OC(=O)[C@H](Cc2ccc(OC)cc2)N(C)C(=O)[C@@H]2CCCN2C(=O)[C@H](CC(C)C)NC(=O)[C@@H](C)C(=O)[C@H](C(C)C)OC(=O)C[C@@H]1O [Didemnin A (1), Didemnin A] (H-[dNMeL]T[X1]LP[NMeY](Me); ester 2-C)	0

These data points were gathered from patent US6841530B2.
